B1: Pistol ribozyme (parent)
chain: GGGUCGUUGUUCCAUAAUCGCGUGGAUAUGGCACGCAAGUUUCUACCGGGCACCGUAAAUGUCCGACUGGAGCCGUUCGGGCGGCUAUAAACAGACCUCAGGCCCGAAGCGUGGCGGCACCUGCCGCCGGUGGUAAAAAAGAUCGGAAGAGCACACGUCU

Variants of: B1
Experiment: aptazyme ON/OFF ratio, guanine; higher = stronger switching; co-transcriptional cleavage with and without guanine
Property: aptazyme ON/OFF ratio
Give bare numbers.

Fill in aptazyme ON/OFF ratio for each of the 6 variants listed.
1. U8A G9U U11A C12A C13U
2. U7G U8G G9C U10G U11C C13A
3. U8A G9A U11A C12U C13A
4. U7G U8C G9C U11A
5. U8C G9C U10C U11A C12A C13G
6. U7G U8G U10A C12G C13A

// result
[1.38, 1.09, 1.39, 2.39, 1.05, 1.16]

Fill in aptazyme ON/OFF ratio for each of the 4 variants listed.
1. U7G G9C U11C C12G
2. U8C U10C C12U C13U
3. U7A U8G G9U C12A C13G
4. U7G G9C U10C U11A C12G C13G

// result
1: 1.65; 2: 1.41; 3: 1.44; 4: 1.2

Fill in aptazyme ON/OFF ratio for each of the 5 variants listed.
1. U7C U8G G9C U10C U11C C12A C13U
2. U7C U8G U10A U11A C12G C13G
3. U7A U8G G9C U10A U11A C12A C13U
4. U8A G9C U10C U11C C12G C13G
5. U7G G9A C12U C13U

// result
1. 1.02
2. 1.13
3. 1.38
4. 1.05
5. 1.18
